Measured IC50, listed per entry for reference.
Assay: Inhibition of the protein kinase C.

Below, each entry is followed by its recorded IC50 result.
C[C@@H](NC(=O)[C@@H](C)NC(=O)c1ccc(S(=O)(=O)Oc2ccc(/C=C/[N+](=O)[O-])cc2)cc1)C(=O)O ... > 100 µM
COc1cc(/C=C/[N+](=O)[O-])ccc1OS(=O)(=O)c1ccc(C(=O)OC[C@H]2O[C@@H](n3cnc4c(N)ncnc43)[C@H](O)[C@@H]2O)cc1 ... 10 µM
COc1cc(/C=C/[N+](=O)[O-])ccc1O ... > 500 µM
C/C(=C\c1ccc(O)c(O)c1)[N+](=O)[O-] ... > 500 µM

# evaluate next
## Input Which IC50 is reported for this compound? COc1cc(/C=C/[N+](=O)[O-])ccc1OS(=O)(=O)c1ccc(C(=O)O)cc1
## Output > 500 µM

---

In this section we review reported IC50 values for a set of compounds.
Biological target: Tyrosine-protein kinase ABL (Homo sapiens, UniProt P00519+P42684)
Experiment: Inhibition of recombinant v-Abl tyrosine kinase.
Assay type: protein assay

Reference set (9 entries):
COC(=O)c1ccc(S(=O)(=O)Oc2ccc(/C=C/[N+](=O)[O-])cc2)cc1O ... > 100 µM
O=[N+]([O-])/C=C/c1ccc(O)c(O)c1 ... 100 µM
O=C(O)c1ccc(S(=O)(=O)Oc2ccc(/C=C/[N+](=O)[O-])cc2)cc1 ... 100 µM
COc1cc(/C=C/[N+](=O)[O-])ccc1O ... > 100 µM
CC(C)(C)OC(=O)NCCNC(=O)c1ccc(S(=O)(=O)Oc2ccc(/C=C/[N+](=O)[O-])cc2)cc1 ... > 100 µM
NCCNC(=O)c1ccc(S(=O)(=O)Oc2ccc(/C=C/[N+](=O)[O-])cc2)cc1 ... 5 µM
O=C(O)c1ccc(S(=O)(=O)Oc2ccc(/C=C/[N+](=O)[O-])cc2)c(O)c1 ... 100 µM
C/C(=C\c1ccc(O)c(O)c1)[N+](=O)[O-] ... 100 µM
COC(=O)c1ccc(S(=O)(=O)Oc2ccc(/C=C/[N+](=O)[O-])cc2)cc1 ... > 100 µM

Here is another compound to look at.
## Input # query: IC50 of entry O=C(O)c1ccc(S(=O)(=O)Oc2ccc(/C=C/[N+](=O)[O-])cc2)cc1O
## Output 27 µM

---

Target: UniProtKB P00533
Sequence (P00533 whole entry): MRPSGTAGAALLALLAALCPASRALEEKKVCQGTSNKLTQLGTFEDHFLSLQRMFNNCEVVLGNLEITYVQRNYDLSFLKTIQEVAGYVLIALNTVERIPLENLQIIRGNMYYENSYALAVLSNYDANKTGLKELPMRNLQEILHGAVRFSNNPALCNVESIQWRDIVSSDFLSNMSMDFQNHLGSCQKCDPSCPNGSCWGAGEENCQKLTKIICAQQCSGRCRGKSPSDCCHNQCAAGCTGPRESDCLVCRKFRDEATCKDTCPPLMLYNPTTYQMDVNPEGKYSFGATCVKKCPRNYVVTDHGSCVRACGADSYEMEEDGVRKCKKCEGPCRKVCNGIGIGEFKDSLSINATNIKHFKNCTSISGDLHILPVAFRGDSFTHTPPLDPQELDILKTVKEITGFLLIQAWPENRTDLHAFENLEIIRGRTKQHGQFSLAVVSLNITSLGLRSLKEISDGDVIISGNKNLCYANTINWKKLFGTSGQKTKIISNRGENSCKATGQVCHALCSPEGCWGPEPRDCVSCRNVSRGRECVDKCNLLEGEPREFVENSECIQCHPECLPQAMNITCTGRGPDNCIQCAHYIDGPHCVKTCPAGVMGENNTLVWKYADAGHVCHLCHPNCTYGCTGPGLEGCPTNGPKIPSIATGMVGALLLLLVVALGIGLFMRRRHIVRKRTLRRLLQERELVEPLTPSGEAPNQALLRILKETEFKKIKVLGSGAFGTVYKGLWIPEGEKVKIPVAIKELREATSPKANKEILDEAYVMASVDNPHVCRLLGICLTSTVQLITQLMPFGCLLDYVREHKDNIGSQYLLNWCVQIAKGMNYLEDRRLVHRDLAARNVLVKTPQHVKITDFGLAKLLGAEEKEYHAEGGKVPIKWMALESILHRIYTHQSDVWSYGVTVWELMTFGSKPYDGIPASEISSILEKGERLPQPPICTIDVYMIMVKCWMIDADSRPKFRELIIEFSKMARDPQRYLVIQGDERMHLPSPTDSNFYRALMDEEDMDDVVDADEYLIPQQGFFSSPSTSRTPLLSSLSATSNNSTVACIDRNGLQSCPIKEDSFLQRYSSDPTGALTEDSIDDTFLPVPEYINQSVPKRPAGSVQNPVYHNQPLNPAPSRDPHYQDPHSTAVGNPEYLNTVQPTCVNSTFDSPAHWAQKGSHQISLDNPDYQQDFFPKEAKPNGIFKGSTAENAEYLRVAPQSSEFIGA
reported endpoint: IC50 (µM)
// units = µM; emit number, no label

Some solved entries appear below for comparison.
Nc1ncnc2c1ncn2[C@@H]1O[C@H](COC(=O)c2ccc(S(=O)(=O)Oc3ccc(/C=C/[N+](=O)[O-])cc3)cc2)[C@@H](O)[C@H]1O ... 0.6
CNC(=O)c1ccc(S(=O)(=O)Oc2ccc(/C=C(\C)[N+](=O)[O-])cc2OC)cc1 ... 4
O=[N+]([O-])/C=C/c1ccc(O)c(O)c1 ... 8.8

## Input Sample C[C@@H](NC(=O)c1ccc(S(=O)(=O)Oc2ccc(/C=C/[N+](=O)[O-])cc2)cc1)C(=O)N[C@H](C)C(=O)OC(C)(C)C — what was its IC50?
## Output 40

## Input What about COc1cc(/C=C/[N+](=O)[O-])ccc1O ?
## Output 7.9

## Input And then CCCCNC(=O)c1ccc(S(=O)(=O)Oc2ccc(/C=C/[N+](=O)[O-])cc2)cc1 , what is it?
## Output 4.8

## Input Let us now turn to COc1cc(/C=C/[N+](=O)[O-])ccc1OS(=O)(=O)c1ccc(C(=O)OC[C@H]2O[C@@H](n3cnc4c(N)ncnc43)[C@H](O)[C@@H]2O)cc1
## Output 0.5

## Input Another molecule: C/C(=C\c1ccc(O)c(O)c1)[N+](=O)[O-]
## Output 9.4

## Input Same thing, different molecule: O=[N+]([O-])/C=C/c1ccc(O)cc1
## Output 10.1

## Input Another: COC(=O)c1ccc(S(=O)(=O)Oc2ccc(/C=C/[N+](=O)[O-])cc2)cc1O
## Output 1.8

---

Target: Tyrosine-protein kinase ABL (Homo sapiens, UniProt P00519+P42684)
Assay: Inhibition of recombinant v-Abl tyrosine kinase.
Format: protein assay
reported endpoint: IC50 (µM)
Respond with the bare value in µM.

## Input Find IC50 (Tyrosine-protein kinase ABL (Homo sapiens, UniProt P00519+P42684)) for the entry CNC(=O)c1ccc(S(=O)(=O)Oc2ccc(/C=C/[N+](=O)[O-])cc2)cc1
## Output 35

---

Experiment: Inhibition of the protein kinase C.
reported endpoint: IC50

Before answering, review these 2 worked examples.
O=C(O)c1ccc(S(=O)(=O)Oc2ccc(/C=C/[N+](=O)[O-])cc2)cc1 ... > 500 µM
COC(=O)c1ccc(S(=O)(=O)Oc2ccc(/C=C/[N+](=O)[O-])cc2)cc1 ... > 500 µM

As a next step, examine the compound that follows.
## Input # get_value(readout='IC50', item= O=C(O)c1ccc(S(=O)(=O)Oc2ccc(/C=C/[N+](=O)[O-])cc2)c(O)c1 )
## Output > 500 µM

---

Biological target: Tyrosine-protein kinase ABL (Homo sapiens, UniProt P00519+P42684)
Test: Inhibition of recombinant v-Abl tyrosine kinase.
Type: protein assay
This section presents compounds with their documented IC50 values.

COc1cc(/C=C/[N+](=O)[O-])ccc1OS(=O)(=O)c1ccc(C(=O)OC[C@H]2O[C@@H](n3cnc4c(N)ncnc43)[C@H](O)[C@@H]2O)cc1 ... 100 µM
C[C@@H](NC(=O)c1ccc(S(=O)(=O)Oc2ccc(/C=C/[N+](=O)[O-])cc2)cc1)C(=O)N[C@H](C)C(=O)OC(C)(C)C ... > 100 µM
CCCCNC(=O)c1ccc(S(=O)(=O)Oc2ccc(/C=C/[N+](=O)[O-])cc2)cc1 ... > 100 µM

Let's switch to this compound now.
## Input Consider the compound shown here: CC(C)(C)NC(=O)c1ccc(S(=O)(=O)Oc2ccc(/C=C/[N+](=O)[O-])cc2)cc1 What is its recorded IC50?
## Output > 100 µM

---

Assay: Inhibition of the protein kinase C.
pIC50: −log10 of the molar value.
Lab note: anything with pIC50 at or over 4 counts as Fulfilled; the rest go in Not fulfilled.

Worked set:
CNC(=O)c1ccc(S(=O)(=O)Oc2ccc(/C=C(\C)[N+](=O)[O-])cc2OC)cc1 ... Not fulfilled
O=C(O)c1ccc(S(=O)(=O)Oc2ccc(/C=C/[N+](=O)[O-])cc2)cc1O ... Not fulfilled
Nc1ncnc2c1ncn2[C@@H]1O[C@H](COC(=O)c2ccc(S(=O)(=O)Oc3ccc(/C=C/[N+](=O)[O-])cc3)cc2)[C@@H](O)[C@H]1O ... Fulfilled
CNC(=O)c1ccc(S(=O)(=O)Oc2ccc(/C=C/[N+](=O)[O-])cc2)cc1 ... Not fulfilled
NCCNC(=O)c1ccc(S(=O)(=O)Oc2ccc(/C=C/[N+](=O)[O-])cc2)cc1 ... Fulfilled
C[C@@H](NC(=O)c1ccc(S(=O)(=O)Oc2ccc(/C=C/[N+](=O)[O-])cc2)cc1)C(=O)N[C@H](C)C(=O)OC(C)(C)C ... Not fulfilled

## Input hey, is pIC50 for this one >= 4? CC(C)(C)OC(=O)NCCNC(=O)c1ccc(S(=O)(=O)Oc2ccc(/C=C/[N+](=O)[O-])cc2)cc1
## Output Not fulfilled

## Input Similarly, C[C@@H](NC(=O)c1ccc(S(=O)(=O)Oc2ccc(/C=C/[N+](=O)[O-])cc2)cc1)C(=O)N[C@H](C)C(=O)NCCN ?
## Output Not fulfilled

---

Target: Tyrosine-protein kinase ABL (Homo sapiens, UniProt P00519+P42684)
Test: Inhibition of recombinant v-Abl tyrosine kinase.
Format: protein assay
In this section we review reported IC50 values for a set of compounds.

## Input What value of IC50 has been reported for the following compound? COc1cc(/C=C/[N+](=O)[O-])ccc1OS(=O)(=O)c1ccc(C(=O)O)cc1
## Output 40 µM

## Input Next record, please: O=[N+]([O-])/C=C/c1ccc(O)cc1
## Output > 100 µM

## Input How about this compound: C[C@@H](NC(=O)c1ccc(S(=O)(=O)Oc2ccc(/C=C/[N+](=O)[O-])cc2)cc1)C(=O)N[C@H](C)C(=O)NCCN
## Output 15 µM

## Input How about this compound: Nc1ncnc2c1ncn2[C@@H]1O[C@H](COC(=O)c2ccc(S(=O)(=O)Oc3ccc(/C=C/[N+](=O)[O-])cc3)cc2)[C@@H](O)[C@H]1O
## Output > 100 µM

## Input Another compound: C[C@@H](NC(=O)[C@@H](C)NC(=O)c1ccc(S(=O)(=O)Oc2ccc(/C=C/[N+](=O)[O-])cc2)cc1)C(=O)O
## Output 35 µM

Sourced from ChEMBL document CHEMBL1125600
